- target: WT1 ZF2-4 wild type (-KTS) (Homo sapiens (cDNA from A549 cells), UniProt P19544-2 334-423)
- Sequence (P19544 other isoform, or with tags, fused parts or gaps): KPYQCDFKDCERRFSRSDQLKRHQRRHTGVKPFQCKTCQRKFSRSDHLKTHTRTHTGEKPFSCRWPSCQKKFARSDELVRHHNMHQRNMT
- method_description: MST; 50 mM Na2HPO4.12H2O, 150 mM NaCl, 0.005% Tween; pH not stated; room temperature; 80 nM DNA; protein from 1-4 mM (highest) downward
- protocol_conditions: protein: recombinant; tags: no tag stated; pET22b, reverse primer has a stop codon; label: 5' Cyanine5; single strand
endpoint_name: Kd (µM)

• GTGGAGGCGGCGGGGGCGGCAGCAACAG (ssDNA) [EGR1 DNA motif, Cy5 oligo] = 111

Source: paper PMC9130146
